Origin of the recorded values: patent US20240270821A1

# tested target: hGcgR (Homo sapiens, UniProt P47871)
# Sequence (P47871 26-477): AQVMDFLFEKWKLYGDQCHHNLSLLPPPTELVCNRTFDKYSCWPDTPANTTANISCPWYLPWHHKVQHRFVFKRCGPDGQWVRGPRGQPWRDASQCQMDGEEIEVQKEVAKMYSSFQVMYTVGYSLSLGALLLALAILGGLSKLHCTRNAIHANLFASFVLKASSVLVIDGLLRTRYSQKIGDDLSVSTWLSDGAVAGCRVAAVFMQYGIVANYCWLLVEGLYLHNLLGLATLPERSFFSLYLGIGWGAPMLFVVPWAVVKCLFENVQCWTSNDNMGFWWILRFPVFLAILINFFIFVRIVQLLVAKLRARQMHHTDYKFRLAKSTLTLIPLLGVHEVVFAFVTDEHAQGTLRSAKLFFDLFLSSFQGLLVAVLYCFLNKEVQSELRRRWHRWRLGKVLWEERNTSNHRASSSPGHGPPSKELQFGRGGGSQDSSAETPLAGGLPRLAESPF
# assay summary: Functional cAMP activation in the presence of 0.1% casein (no HSA);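 also: intracellular cAMP rise after 30 min at 37 °C, read by HTRF against a cAMP standard curve, scaled from buffer only (0%) to maximal control ligand response (100%)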
# Type: cell-based
# run parameters: in the presence of 0.1% casein (no HSA); geometric mean; read-out: Relative cAMP EC50, hGcgR
Starred links: 1 amine or outer side, 2 acyl side, 3 side chain; linkers in the order of their positions; H or OH if unused. Non-standard residues stand in square brackets, D forms with d. Groups on a side chain read outwards from the residue. *: point of attachment. C20 diacid = O=C(O)CCCCCCCCCCCCCCCCCCC(=O)*; C18 diacid = O=C(O)CCCCCCCCCCCCCCCCC(=O)*; Phe(4-CN) = N#Cc1ccc(C[C@H](N)C(=O)O)cc1; αMePhe(2-F) = C[C@](N)(Cc1ccccc1F)C(=O)O; γGlu = O=C(O)[C@H](CCC(=O)[*:2])N[*:1]; αMe4Pal = C[C@](N)(Cc1ccncc1)C(=O)O; 4Pal = N[C@@H](Cc1ccncc1)C(=O)O; αMeL = CC(C)C[C@](C)(N)C(=O)O; Orn = NCCC[C@H](N)C(=O)O; AEEA = NCCOCCOCC(=O)O; Aib = CC(C)(N)C(=O)O
Each record here notes measured EC50.
# unit: nM | format: bare number

Below: 5 substances and their reported EC50.
H-Y[Aib]QGTFTSDFS[Orn][αMeL]LDKK([AEEA-AEEA-γGlu-C18 diacid])AQ[Aib]AFIEWLLEGGHSSGAPPPGGE-NH2 [Example 271] | 8.51
H-Y[Aib]QGTFTSD[4Pal]S[Orn][αMeL]LDKK([γGlu-γGlu-C18 diacid])AQ[αMe4Pal]AFIEYLIAGGPSSGEPPPSGE-NH2 [Example 979] | 3.34
H-Y[Aib]QGTFTSDFS[Orn][αMeL]LDKK([AEEA-γGlu-C18 diacid])AQ[Aib]AFIEWLLEGGHSSGAPPPSGH-NH2 [Example 269] | 7.69
H-Y[Aib]QGT[αMePhe(2-F)]TSD[Phe(4-CN)]SILLDKQAQK([AEEA-γGlu-C20 diacid])AFIQYLLEGGPSSGEPPPSEG-NH2 [Example 341] | 10.7
H-Y[Aib]QGTFTSD[4Pal]S[Orn][αMeL]LDKK([γGlu-γGlu-C18 diacid])AQ[αMe4Pal]AFIEYLIAGGPSSGAPPPSGSE-NH2 [Example 1009] | 4.21

For the next question, use this substance.
Notebook entry, hGcgR (Homo sapiens, UniProt P47871) assay: EC50 of H-Y[Aib]QGTFTSDFS[Orn][αMeL]LDKK([AEEA-γGlu-C18 diacid])AQ[Aib]AFIEYLLE[Aib]GESSGAPPPSGS-NH2 [Example 240] = ? 2.02

---

# tested target: human GcgR (Homo sapiens, UniProt P47871)
# Sequence (P47871 26-477): as the sequence (P47871 26-477) above
# assay summary: Functional cAMP activity in the presence of 1% HSA
# Type: cell-based
# run parameters: HEK-293 clonal cell line, in the presence of 1% HSA; geometric mean of relative EC50; read-out: cAMP Rel EC50, hGcgR
Starred links: 1 amine or outer side, 2 acyl side, 3 side chain; linkers in the order of their positions; H or OH if unused. Non-standard residues stand in square brackets, D forms with d. Groups on a side chain read outwards from the residue. No end group written: not given here. *: point of attachment. C18 diacid = O=C(O)CCCCCCCCCCCCCCCCC(=O)*; γGlu = O=C(O)[C@H](CCC(=O)[*:2])N[*:1]; αMe4Pal = C[C@](N)(Cc1ccncc1)C(=O)O; αMeY = C[C@](N)(Cc1ccc(O)cc1)C(=O)O; 4Pal = N[C@@H](Cc1ccncc1)C(=O)O; αMeL = CC(C)C[C@](C)(N)C(=O)O; Orn = NCCC[C@H](N)C(=O)O; Dab = NCC[C@H](N)C(=O)O; Aib = CC(C)(N)C(=O)O
Consider the cut-off 500 nM. If the recorded EC50 is strictly smaller, the label is met; if not, the label is not met.

H-Y[Aib]QGTFTSD[4Pal]SQ[αMeL]LDKK([γGlu-γGlu-C18 diacid])AQ[αMe4Pal]AFIEYLIE[Aib]GPSSGAPPPSGTGE-NH2 [Example 1127] | met

For this substance, is EC50 lower than 500 nM? Y[Aib]QGTFTSD[4Pal]SQ[αMeL]LDKK([γGlu-γGlu-C18 diacid])AQ[αMe4Pal]AFIE[αMe4Pal]LIE[Aib]GPSSGAPPPSGEE-NH2 [Example 1121] not met

Hello, I'm reviewing records and need to know if EC50 of H-Y[Aib]QGTFTSD[4Pal]S[Dab][αMeL]LD[Orn]K([γGlu-γGlu-C18 diacid])AQ[αMe4Pal]AFIE[αMe4Pal]LLAGGPSSGAPPPEGSEE-NH2 [Example 1055] is below 500 nM. Could you check? met

Decide: EC50 of H-Y[Aib]QGTFTSDFS[Orn][αMeL]LD[Orn]K([γGlu-γGlu-C18 diacid])AQ[Aib]AFIE[αMe4Pal]LLEGGPSSGAPPPGGSEE-NH2 [Example 1050] strictly below 500 nM? not met

For Y[Aib]QGTFTSD[4Pal]SQ[αMeL]LDKK([γGlu-γGlu-C18 diacid])AQ[αMe4Pal]AFIE[αMe4Pal]LIE[Aib]GPSSGAPPPSGSEE-NH2 [Example 1122] , is the recorded EC50 below the cut-off of 500 nM? met

Input H-Y[Aib]QGTFTSD[4Pal]S[Orn][αMeL]LD[Orn]K([γGlu-γGlu-C18 diacid])AQ[αMe4Pal]EFIE[αMeY]LLAGGPSSGAPPPSGSEE-NH2 [Example 996] ; condition: EC50 strictly below 500 nM. Does it hold? not met
